B1: CPOX (parent)
chain: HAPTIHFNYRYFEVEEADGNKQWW

# Variants of: B1
# experiment.summary: protein stability index of a GFP-peptide fusion (GPS, HEK-293T) (PSI 1-6); higher = more stable;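 further: lentivirally expressed fusions sorted by FACS into six bins by GFP to DsRed ratio, PSI derived from sequencing read proportions per bin multiplied by bin number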
# experimental.conditions: c terminus: a fixed tail appended
# protein stability index per record follows
Keep it simple and answer with nothing but the number.

Past entries and their recorded results:
INSERT INTO assay_data (mutation_code, measurement_label, measured) VALUES
  ('W24L', 'protein stability index', 2.66),
  ('D18T', 'protein stability index', 1.89),
  ('E15D', 'protein stability index', 2.58),
  ('N20G', 'protein stability index', 2.38),
  ('D18L', 'protein stability index', 1.3),
  ('Y11L', 'protein stability index', 2.39),
  ('V14K', 'protein stability index', 2.85),
  ('P3D', 'protein stability index', 2.67);

Pending variant:
Q: Dear colleague, I am looking for the recorded protein stability index of the following variant: E15M
Ans: 2.35
